Consider the following compounds and their measured solubility readings.
# METHOD DESCRIPTION: Assessment of solubility: HT solubility in pION buffer, UV spectrophotometry
# SETUP CONDITIONS: pION system solution buffer, pH 7.4, pH 7.4, aqueous buffer, kinetic from dmso stock, Solubility (pH 7.4), pH 7.4 buffer, 16-19 h incubation, 1.0% DMSO

# count of solved cases: 5
[[record]]
compound = "Cc1cc(CN2CCCC(O)C2)ccc1COc1c(C)cccc1-c1csc(N2CCC(C(=O)O)CC2)n1 (centres unmarked) [Compound 53]"
measurement = "> 53 µg/mL"

[[record]]
compound = "N#Cc1cc(CN2CCOCC2)ccc1COc1c(Cl)cccc1-c1csc(N2CCC(C(=O)O)CC2)n1 [Compound 81]"
measurement = "38 µg/mL"

[[record]]
compound = "Cc1ccc(OCc2ccc(CN3CCN(S(=O)(=O)N(C)C)CC3)cc2C)c(-c2csc(N3CCC(C(=O)O)CC3)n2)c1 [Compound 200]"
measurement = "30 µg/mL"

[[record]]
compound = "Cc1ccc(OCc2ccc(CN3CCOCC3)cc2C)c(-c2csc(N(C)CCCC(=O)O)n2)c1 [Compound 179]"
measurement = "> 55 µg/mL"

[[record]]
compound = "Cc1ccc(OCc2ccc(CN3CCOCC3)cc2C)c(-c2csc(N3CC[C@@H](C(=O)O)C3)n2)c1 (single isomer, unassigned) [Compound 5]"
measurement = "40 µg/mL"


q: Please supply the value of reported solubility for the item Cc1cc(CN2CCOCC2)ccc1COc1c(C#N)cccc1-c1csc(N2CCC(C(=O)O)CC2)n1 [Compound 35]
a: > 53 µg/mL

q: Please supply the value of reported solubility for the item Cc1ccc(OCc2ccc(C(=O)N3CCS(=O)(=O)CC3)cc2C)c(-c2csc(N3CCC(C(=O)O)CC3)n2)c1 [Compound 122]
a: > 58 µg/mL

q: Please supply the value of reported solubility for the item Cc1ccc(OCc2ccc(C(=O)N(C)CC3CCCO3)cc2C)c(-c2csc(N3C[C@H]4CC[C@@H](C3)[C@H]4C(=O)O)n2)c1 (some centres unmarked) [Compound 306]
a: 5.2 µg/mL

q: Please supply the value of reported solubility for the item Cc1ccc(OCc2ccc(CN3CCOCC3)cc2C)c(-c2csc(C3=CCC(C(=O)O)CC3)n2)c1 (centres unmarked) [Compound 10]
a: 22 µg/mL

q: Please supply the value of reported solubility for the item Cc1cc(C(=O)N2CCCCC2)ccc1COc1ccc(F)cc1-c1csc(N2CC3C(C2)C3C(=O)O)n1 (centres unmarked) [Compound 55]
a: > 53 µg/mL

q: Please supply the value of reported solubility for the item Cc1ccc(OCc2ccc(CN3CCOCC3)cc2C)c(-c2csc(N3CCC(C(=O)O)CC3C(F)(F)F)n2)c1 (centres unmarked) [Compound 132]
a: > 58 µg/mL

q: Please supply the value of reported solubility for the item Cc1ccc(OCc2ccc(CN3CCOCC3)cc2C)c(-c2csc(N3C[C@H]4CC[C@@H](C3)[C@@]4(C)C(=O)O)n2)c1 [Compound 270]
a: > 56 µg/mL

q: Please supply the value of reported solubility for the item Cc1cccc(-c2csc(N3CCC(C(=O)O)CC3)n2)c1OCc1ccc(CN2CCOCC2)cc1C#N [Compound 36]
a: > 64 µg/mL

q: Please supply the value of reported solubility for the item Cc1cc(CN2CCS(=O)(=O)CC2)ccc1COc1ccc(Cl)cc1-c1csc(N2CCC(C(=O)O)CC2)n1 [Compound 133]
a: > 58 µg/mL
